Provenance of the data: ChEMBL document CHEMBL1157608

Target: Prostaglandin E2 receptor EP4 subtype (Homo sapiens, UniProt P35408)
Sequence (P35408 whole entry): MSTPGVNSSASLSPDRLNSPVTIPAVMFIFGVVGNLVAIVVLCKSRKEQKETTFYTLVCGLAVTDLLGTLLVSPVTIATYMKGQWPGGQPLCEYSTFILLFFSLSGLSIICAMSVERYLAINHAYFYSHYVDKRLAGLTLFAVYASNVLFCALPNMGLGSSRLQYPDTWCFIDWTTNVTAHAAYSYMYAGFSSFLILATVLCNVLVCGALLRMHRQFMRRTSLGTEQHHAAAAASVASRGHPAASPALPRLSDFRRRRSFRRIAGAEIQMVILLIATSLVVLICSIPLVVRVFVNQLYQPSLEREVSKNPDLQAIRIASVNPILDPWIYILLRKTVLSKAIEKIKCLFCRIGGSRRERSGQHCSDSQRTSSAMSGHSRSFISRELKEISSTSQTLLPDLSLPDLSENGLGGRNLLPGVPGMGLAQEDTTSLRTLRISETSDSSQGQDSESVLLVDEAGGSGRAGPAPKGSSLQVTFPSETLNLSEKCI
Assay: Displacement of [3H]PGE2 from human EP4 receptor expressed in HEK293-EBNA cells by scintillation counting in presence of 10% human serum
Format: cell-based
recorded endpoint: Ki (nM)
# value in nM; strip the unit string

Item `Cc1sc(C)c(C(=O)NC2(c3ccc(C(=O)O)cc3)CC2)c1Cc1ccc(C(F)(F)F)cc1` : provide Ki
0.97

* * *

Molecular target: Prostaglandin F2-alpha receptor (Homo sapiens, UniProt P43088)
Sequence (P43088 whole entry): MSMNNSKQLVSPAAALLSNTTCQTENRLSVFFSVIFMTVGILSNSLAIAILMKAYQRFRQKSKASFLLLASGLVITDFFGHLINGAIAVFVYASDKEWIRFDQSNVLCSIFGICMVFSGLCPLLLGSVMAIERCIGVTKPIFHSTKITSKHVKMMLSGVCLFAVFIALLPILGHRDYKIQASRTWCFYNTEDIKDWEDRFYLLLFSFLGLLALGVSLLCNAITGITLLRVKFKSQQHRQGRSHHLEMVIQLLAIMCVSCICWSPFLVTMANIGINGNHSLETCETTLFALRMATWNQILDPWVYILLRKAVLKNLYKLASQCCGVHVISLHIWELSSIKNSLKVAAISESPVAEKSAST
recorded endpoint: Ki

Worked examples follow.
C[C@H](NC(=O)c1cscc1Cc1cccc(Cl)c1)c1ccc(C(=O)O)cc1; > 7.28 µM
Cc1sc(C)c(C(=O)NC2(c3ccc(C(=O)O)cc3)CC2)c1Cc1cccc(C(F)(F)F)c1; > 4.99 µM
Cc1sc(C)c(C(=O)N[C@@H](C)c2ccc(C(=O)O)cc2)c1Cc1ccc(C(F)(F)F)cc1; > 5.47 µM
Cc1sc(C)c(C(=O)N[C@@H](C)c2ccc(C(=O)O)cc2)c1Cc1cccc(Cl)c1; > 2.23 µM

State Ki (Prostaglandin F2-alpha receptor (Homo sapiens, UniProt P43088)) of `C[C@@H](NC(=O)c1c(Cl)sc(Cl)c1Cc1cccc(Cl)c1)c1ccc(C(=O)O)cc1` .
> 0.224 µM
